# System: lyase from M. costata
# Protocol notes: Relative degrading rates of the lyase from M. costata towards various substrates
# Format: biochemical, Morchella costata
# Details: substrate 4 mg/ml
Measured attribute: relative degrading rate (maltotetraose = 100%)
Number in %, nothing else.

Solved entries:
[ask] Could you tell me which relative degrading rate (maltotetraose = 100%) is on file for OC[C@H]1O[C@H](O[C@H]2[C@H](O)[C@@H](O)[C@@H](O[C@H]3[C@H](O)[C@@H](O)[C@@H](O[C@H]4[C@H](O)[C@@H](O)C(O)O[C@@H]4CO)O[C@@H]3CO)O[C@@H]2CO)[C@H](O)[C@@H](O)[C@@H]1O (stereo partly shown) ?
[reply] 100

[ask] Now the molecule OC[C@H]1O[C@H](O[C@H]2[C@H](O)[C@@H](O)[C@@H](O[C@H]3[C@H](O)[C@@H](O)[C@@H](O[C@H]4[C@H](O)[C@@H](O)[C@@H](O[C@H]5[C@H](O)[C@@H](O)C(O)O[C@@H]5CO)O[C@@H]4CO)O[C@@H]3CO)O[C@@H]2CO)[C@H](O)[C@@H](O)[C@@H]1O (stereo partly shown)
[reply] 100.1

[ask] Follow-up item: OC[C@H]1O[C@H](O[C@H]2[C@H](O)[C@@H](O)[C@@H](O[C@H]3[C@H](O)[C@@H](O)[C@@H](O[C@H]4[C@H](O)[C@@H](O)[C@@H](O[C@H]5[C@H](O)[C@@H](O)[C@@H](O[C@H]6[C@H](O)[C@@H](O)C(O)O[C@@H]6CO)O[C@@H]5CO)O[C@@H]4CO)O[C@@H]3CO)O[C@@H]2CO)[C@H](O)[C@@H](O)[C@@H]1O (stereo partly shown)
[reply] 98.2

Moving on to the next molecule.
[ask] What value of relative degrading rate (maltotetraose = 100%) has been reported for the following molecule? OC[C@H]1O[C@H](O[C@H]2[C@H](O)[C@@H](O)[C@@H](O[C@H]3[C@H](O)[C@@H](O)[C@@H](O[C@H]4[C@H](O)[C@@H](O)[C@@H](O[C@H]5[C@H](O)[C@@H](O)[C@@H](O[C@H]6[C@H](O)[C@@H](O)[C@@H](O[C@H]7[C@H](O)[C@@H](O)C(O)O[C@@H]7CO)O[C@@H]6CO)O[C@@H]5CO)O[C@@H]4CO)O[C@@H]3CO)O[C@@H]2CO)[C@H](O)[C@@H](O)[C@@H]1O (stereo partly shown)
[reply] 81.5

* * *

Collected relative degrading rate (maltotetraose = 100%) values appear next to each entry.
# Tested on: lyase from M. costata
# Protocol notes: Relative degrading rates of the lyase from M. costata towards various substrates
# Assay type: biochemical, Morchella costata
# Details: substrate 10 mg/ml
Output spec: scalar in %, unitless text.

[ask] Which relative degrading rate (maltotetraose = 100%) is reported for this molecule? OC[C@H]1O[C@H](O[C@H]2[C@H](O)[C@@H](O)[C@@H](O[C@H]3[C@H](O)[C@@H](O)[C@@H](O[C@H]4[C@H](O)[C@@H](O)C(O)O[C@@H]4CO)O[C@@H]3CO)O[C@@H]2CO)[C@H](O)[C@@H](O)[C@@H]1O (stereo partly drawn) [Maltotetraose, maltotetraose]
[reply] 100

[ask] And what about the molecule OCC1OC(OC2C(CO)OC(OC3C(CO)OC(O)C(O)C3O)C(O)C2O)C(O)C(O)C1O (stereo not drawn) [Maltotriose, maltotriose] ?
[reply] 56.0

Further cases:
[ask] // relative degrading rate (maltotetraose = 100%) lookup, key: OC[C@H]1O[C@H](O[C@H]2[C@H](O)[C@@H](O)[C@@H](O[C@H]3[C@H](O)[C@@H](O)[C@@H](O[C@H]4[C@H](O)[C@@H](O)[C@@H](O[C@H]5[C@H](O)[C@@H](O)[C@@H](O[C@H]6[C@H](O)[C@@H](O)[C@@H](O[C@H]7[C@H](O)[C@@H](O)C(O)O[C@@H]7CO)O[C@@H]6CO)O[C@@H]5CO)O[C@@H]4CO)O[C@@H]3CO)O[C@@H]2CO)[C@H](O)[C@@H](O)[C@@H]1O (stereo partly drawn) [Maltoheptaose, maltoheptaose]
[reply] 75.7

* * *

# Test system: lyase from M. costata
# Protocol notes: Relative degrading rates of the lyase from M. costata towards various substrates
# Assay type: biochemical, Morchella costata
# Details: incubated for 48 h
Measured attribute: degradation (AF detectable on TLC plates)

[ask] Param item = `O=C[C@H](O)[C@@H](O)[C@H](O)[C@H](O)CO` ; retrieve measured degradation (AF detectable on TLC plates).
[reply] no AF detectable

[ask] And for OC[C@H]1O[C@H](O[C@@H]2[C@@H](O)[C@@H](O[C@@H]3[C@@H](O)[C@@H](O[C@H]4[C@H](O)[C@@H](CO)OC(O)[C@@H]4O)O[C@H](CO)[C@H]3O)O[C@H](CO)[C@H]2O)[C@H](O)[C@@H](O)[C@@H]1O (stereo partly drawn) ?
[reply] no AF detectable

[ask] What about this molecule? `OC[C@H]1O[C@H](O[C@H]2O[C@H](CO)[C@@H](O)[C@H](O)[C@H]2O)[C@H](O)[C@@H](O)[C@@H]1O`
[reply] no AF detectable

[ask] Then what about the molecule OC[C@H]1O[C@H](O[C@H]2[C@H](O)[C@@H](CO)OC(O)[C@@H]2O)[C@H](O)[C@@H](O)[C@@H]1O (stereo partly drawn) ?
[reply] no AF detectable

[ask] Now try `OC[C@H]1O[C@@H]2O[C@H]3[C@H](O)[C@@H](O)[C@@H](O[C@H]4[C@H](O)[C@@H](O)[C@@H](O[C@H]5[C@H](O)[C@@H](O)[C@@H](O[C@H]6[C@H](O)[C@@H](O)[C@@H](O[C@H]7[C@H](O)[C@@H](O)[C@@H](O[C@H]8[C@H](O)[C@@H](O)[C@@H](O[C@H]9[C@H](O)[C@@H](O)[C@@H](O[C@H]1[C@H](O)[C@H]2O)O[C@@H]9CO)O[C@@H]8CO)O[C@@H]7CO)O[C@@H]6CO)O[C@@H]5CO)O[C@@H]4CO)O[C@@H]3CO` .
[reply] no AF detectable

Continuing:
[ask] Returns the measured degradation (AF detectable on TLC plates) for the input molecule. Input: O=[N+]([O-])c1ccc(OC2OC(CO)C(OC3OC(CO)C(OC4OC(CO)C(OC5OC(CO)C(OC6OC(CO)C(OC7OC(CO)C(OC8OC(CO)C(O)C(O)C8O)C(O)C7O)C(O)C6O)C(O)C5O)C(O)C4O)C(O)C3O)C(O)C2O)cc1 (stereo not drawn)
[reply] no AF detectable

* * *

# System: lyase from M. costata
# Protocol notes: Relative degrading rates of the lyase from M. costata towards various substrates
# Type: biochemical, Morchella costata
# Details: substrate 2 mg/ml
Label yes (1) when relative degrading rate (maltotetraose = 100%) is strictly below 90%; otherwise label no (0).

[ask] I wonder whether OC[C@H]1O[C@H](O[C@H]2[C@H](O)[C@@H](O)[C@@H](O[C@H]3[C@H](O)[C@@H](O)[C@@H](O[C@H]4[C@H](O)[C@@H](O)C(O)O[C@@H]4CO)O[C@@H]3CO)O[C@@H]2CO)[C@H](O)[C@@H](O)[C@@H]1O (some centres unmarked) has relative degrading rate (maltotetraose = 100%) below 90%. Can you tell?
[reply] no (0)

[ask] // repeat for OCC1OC(OC2C(CO)OC(OC3C(CO)OC(O)C(O)C3O)C(O)C2O)C(O)C(O)C1O (centres unmarked) and report
[reply] yes (1)

[ask] Same thing, different molecule: OC[C@H]1O[C@H](O[C@H]2[C@H](O)[C@@H](O)[C@@H](O[C@H]3[C@H](O)[C@@H](O)[C@@H](O[C@H]4[C@H](O)[C@@H](O)[C@@H](O[C@H]5[C@H](O)[C@@H](O)[C@@H](O[C@H]6[C@H](O)[C@@H](O)C(O)O[C@@H]6CO)O[C@@H]5CO)O[C@@H]4CO)O[C@@H]3CO)O[C@@H]2CO)[C@H](O)[C@@H](O)[C@@H]1O (some centres unmarked)
[reply] yes (1)

[ask] One more molecule: OC[C@H]1O[C@H](O[C@H]2[C@H](O)[C@@H](O)[C@@H](O[C@H]3[C@H](O)[C@@H](O)[C@@H](O[C@H]4[C@H](O)[C@@H](O)[C@@H](O[C@H]5[C@H](O)[C@@H](O)C(O)O[C@@H]5CO)O[C@@H]4CO)O[C@@H]3CO)O[C@@H]2CO)[C@H](O)[C@@H](O)[C@@H]1O (some centres unmarked)
[reply] no (0)

[ask] Next: OC[C@H]1O[C@H](O[C@H]2[C@H](O)[C@@H](O)[C@@H](O[C@H]3[C@H](O)[C@@H](O)[C@@H](O[C@H]4[C@H](O)[C@@H](O)[C@@H](O[C@H]5[C@H](O)[C@@H](O)[C@@H](O[C@H]6[C@H](O)[C@@H](O)[C@@H](O[C@H]7[C@H](O)[C@@H](O)C(O)O[C@@H]7CO)O[C@@H]6CO)O[C@@H]5CO)O[C@@H]4CO)O[C@@H]3CO)O[C@@H]2CO)[C@H](O)[C@@H](O)[C@@H]1O (some centres unmarked)
[reply] yes (1)

// data source = patent US6632643B2
